Method: qHTS for Inhibitors of the Functional Ribonucleoprotein Complex (vRNP) of Lymphocytic Choriomeningitis Arenaviruses (LCMV): Viability assay - alamar blue signal for LCMV Primary Screen (AID 1347085); also: nearly all actives have a fitted effect of over 80% in size
Test context: alamar blue viability counter-screen, LCMV vRNP screen cells; series mostly up to 57.5 µM
Records with an inconclusive call do not appear. Active and inactive are the calls of the source. Calls follow the shape of the full dose curve; tested in HEK293 reporter line.
Classes used: 1.0 (active), 0.0 (inactive)

1. O=[N+]([O-])c1c2ccccc2cc2ccccc12: 0.0
2. COC1=C[C@@H]2[C@@H]3Cc4ccc(OC)c(O)c4[C@]2(CCN3C)CC1=O: 1.0
3. CC(NCc1ccc2c(c1)nc(NC(=O)c1ccc(-c3cn[nH]c3)s1)n2CC(C)(C)O)C(C)(C)C (configuration not stated): 1.0
4. O=C1[C@H](Cc2ccc(O)cc2)N2C(=O)CCN(C(=O)NCc3ccccc3)[C@H]2CN1Cc1cccc2ccccc12: 1.0
5. NC(=O)Nc1cc(-c2cccc(F)c2)sc1C(=O)N[C@H]1CCCNC1: 1.0
6. CCN(CC)CCn1c(=O)c(Cc2ccc(OC)cc2)nc2ccccc21: 0.0
7. Cc1nn(Cc2ccccc2Cl)c(C)c1CN(C)CC(O)COc1ccc(Cl)cc1 (configuration not stated): 0.0
8. Nc1ccc([N+](=O)[O-])cc1O: 0.0
9. CCc1cc(Nc2nccc(-c3c(-c4ccc(OC)c(C(=O)Nc5c(F)cccc5F)c4)nc4ccccn34)n2)c(OC)cc1N1CCC(N2CCN(S(C)(=O)=O)CC2)CC1: 1.0
10. CN1C(=O)C(Cc2c[nH]c3ccccc23)NC1=S (configuration not stated): 0.0
11. CC[C@@H](C(N)=O)N1CCCC1=O: 0.0
12. CC(C)[C@H](CO)Nc1nc(Nc2ccc(C(=O)O)c(Cl)c2)c2ncn(C(C)C)c2n1: 1.0
13. CCC(=O)OC1CCC2C3CCC4=CC(=O)CC[C@@]4(C)C3CC[C@]12C (some centres not stated): 0.0
14. OCCCc1ccccc1: 0.0
15. CCN1CCN(C(=O)Cc2ccc(Nc3ncc(F)c(Nc4ccc(C(=O)Nc5ccccc5Cl)cc4)n3)cc2)CC1: 1.0
16. NCCO: 0.0
17. COCC(=O)NCC=Cc1ccc2ncnc(Nc3ccc(Oc4ccc(C)nc4)c(C)c3)c2c1: 0.0
18. Oc1c(I)cc(I)c2cccnc12: 0.0
19. O=C(C=Cc1cccc(S(=O)(=O)Nc2ccccc2)c1)NO: 1.0
20. COC(C)(C)CCCC(C)C/C=C/C(C)=C/C(=O)OC(C)C (configuration not stated): 0.0
21. CC[C@@H]1[C@@H](C)O[C@@](O)([C@@H](C)[C@H](O)[C@H](C)[C@H]2OC(=O)C=CC=C[C@@H](C)[C@@H]([C@@H](C)[C@@H](O)[C@H](C)[C@@]3(O)C[C@H](O[C@H]4C[C@H](O)[C@H](O)[C@H](C)O4)[C@H](CC)[C@@H](C)O3)OC(=O)C=CC=C[C@@H]2C)C[C@H]1O[C@H]1C[C@H](O)[C@H](O)[C@H](C)O1: 1.0
22. O=C(C=Cc1ccc(/C=C/C(=O)Nc2ccc(C3=NCCN3)cc2)cc1)Nc1ccc(C2=NCCN2)cc1: 0.0
23. O=C(O)COc1nc(Cl)c(Cl)cc1Cl: 0.0
24. CC(C)CCCC(C)CCCC(C)CCCCC(C)CCCC(C)CCCC(C)C (configuration not stated): 0.0
25. Cc1nccc2c1[nH]c1ccccc12: 0.0
26. CN(c1ncccc1CNc1nc(Nc2ccc3c(c2)CC(=O)N3)ncc1C(F)(F)F)S(C)(=O)=O: 1.0
27. O=C(O)c1ccc(O)c2ncc(N3CCOCC3)cc12: 1.0
28. O=C(O)COc1ccccc1: 0.0
29. NC(CCP(=O)(O)O)C(=O)O (configuration not stated): 0.0
30. COc1ccc(C(c2ccc(OC)cc2)C(Cl)(Cl)Cl)cc1: 0.0
31. Cc1c(C(=O)Nc2ccc(N3C[C@@H](C)O[C@@H](C)C3)nc2)cccc1-c1ccc(OC(F)(F)F)cc1: 0.0
32. O=C(O)[C@@H]1CCN1: 0.0
33. CC(C)c1ccccc1Cc1cc(C(=O)Nc2ccc(S(=O)(=O)c3ccccc3C(C)(C)C)cc2)c(O)c(O)c1O: 1.0
34. CC(=O)Nc1ccc(O)cc1: 0.0
35. C/C(=C1\CCOC(=O)S1)N(C=O)Cc1cnc(C)nc1N: 0.0
36. CCC(=O)O[C@@H]1C=C2CCC3C(CCC4(C)C3CC[C@@H]4OC(=O)CC)C2CC1 (some centres not stated): 0.0
37. CS(=N)(=O)CC[C@H](N)C(=O)O (some centres not stated): 0.0
38. COc1ccc(C2=N[C@H](c3ccc(Cl)cc3)[C@H](c3ccc(Cl)cc3)N2C(=O)N2CCNC(=O)C2)c(OC(C)C)c1: 0.0
39. CCCCCCCCCCCCCC(=O)OC(C)C: 0.0
40. S=C(NC1CCCCC1)N1CCC(c2cnc[nH]2)CC1: 0.0
41. CN[C@@H](C)[C@H](O)c1ccccc1: 0.0
42. Nc1ccc(Sc2ccc(N)cc2)cc1: 0.0

###

Method: qHTS drug screen for cell cycle checkpoint inhibitors in PARPi-resistant BRCA-mutant ovarian cancer cell lines. (AID 1963452)
Test context: PEO1/OlaR viability, CellTiter-Glo luminescence, 96 h; stronger effect = lower value
Labelling: Z-AUC reported below 0.7 becomes label 1; at or above becomes label 0.

1. O=C(NCC1CCOCC1)c1cnc(Nc2ccc(Cl)cc2Cl)nc1C(F)(F)F: label 0
2. COc1cc([C@@H]2c3cc4c(cc3[C@@H](O)C3COC(=O)C32)OCO4)cc(OC)c1O (stereo partly specified): label 1
3. O=S(=O)(CC1CS1)c1ccc(Oc2ccccc2)cc1 (stereo unspecified): label 0
4. CCCN1CCO[C@@H]2c3cc(O)ccc3OC[C@H]21: label 1
5. CC1(N2CCC(n3c([C@@H]4CCCNC4)nc4ccccc43)CC2)CCCCCCC1: label 0
6. O=C(N[C@@H](COc1ccc2[nH]c(=O)[nH]c2c1)c1ccccc1)c1cccn(Cc2ccc(F)c(F)c2)c1=O: label 1
7. c1ccc2c(CN3CCNCC3)cccc2c1: label 1
8. COc1ccc(C(=O)c2c(C)n(CCN3CCOCC3)c3cc(I)ccc23)cc1: label 1
9. CC(C)[C@]12O[C@H]1[C@@H]1O[C@]13[C@]1(O[C@H]1C[C@H]1C4=C(CC[C@@]13C)C(=O)OC4)[C@@H]2O: label 1
10. O=C(Oc1ccc([N+](=O)[O-])cc1)N1CCN(Cc2cccc(Oc3ccccc3)c2)CC1: label 0
11. CC[C@@H](C(N)=O)N1CCCC1=O: label 1
12. CCOP(=O)(OCC)C(C)NC(=O)N(CCCl)N=O (stereo unspecified): label 0
13. COc1ccc2c(c[n+](C)c3c4cc5c(cc4ccc23)OCO5)c1OC: label 1
14. CCOC(=O)Nc1ccc(NCc2ccc(F)cc2)cc1N: label 1
15. CCNC(=O)C[C@@H]1N=C(c2ccc(Cl)cc2)c2cc(OC)ccc2-n2c(C)nnc21: label 1
16. CCc1c(C(=O)C(N)=O)c2c(OCC(=O)O)cccc2n1Cc1ccccc1: label 1
17. CN(C)NC(=O)CCC(=O)O: label 0
18. CC(C)(C)c1cc(C=C(C#N)C#N)cc(Br)c1O: label 0
19. CCCC[N+]1(C)[C@H]2CC(OC(=O)[C@H](CO)c3ccccc3)C[C@H]1[C@H]1O[C@H]12 (stereo partly specified): label 0
20. Cc1ccccc1-n1c(Cn2ncc3c(N)ncnc32)nc2cccc(C)c2c1=O: label 1

###

Target or system: Nucleoprotein (Lymphocytic choriomeningitis virus (strain Armstrong)) (UniProt P09992)
Sequence (P09992 whole entry, looked up): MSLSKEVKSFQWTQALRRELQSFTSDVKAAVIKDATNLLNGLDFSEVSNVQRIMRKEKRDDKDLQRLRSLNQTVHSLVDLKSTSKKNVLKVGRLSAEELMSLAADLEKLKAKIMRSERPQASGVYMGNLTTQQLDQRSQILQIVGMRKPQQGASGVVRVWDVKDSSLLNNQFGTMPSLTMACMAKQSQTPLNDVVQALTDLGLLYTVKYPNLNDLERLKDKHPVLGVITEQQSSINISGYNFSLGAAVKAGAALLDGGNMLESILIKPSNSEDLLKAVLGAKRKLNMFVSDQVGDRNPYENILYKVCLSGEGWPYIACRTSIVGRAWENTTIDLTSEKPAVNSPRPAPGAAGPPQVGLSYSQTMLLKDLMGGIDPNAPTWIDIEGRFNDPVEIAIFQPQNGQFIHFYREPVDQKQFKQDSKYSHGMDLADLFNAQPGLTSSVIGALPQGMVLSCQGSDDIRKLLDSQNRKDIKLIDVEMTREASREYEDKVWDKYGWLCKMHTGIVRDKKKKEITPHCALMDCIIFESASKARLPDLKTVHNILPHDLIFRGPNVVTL
Method: qHTS for Inhibitors of the Functional Ribonucleoprotein Complex (vRNP) of Lymphocytic Choriomeningitis Arenaviruses (LCMV): LCMV Primary Screen - GLuc reporter signal (AID 1347086); also: nearly all actives have a fitted effect of over 70% in size; also: potency is read from the fitted curve at half-maximal effect
Test context: LCMV minigenome vRNP cell assay, Gaussia luciferase reporter; series mostly up to 57.5 µM
Inconclusive results are not listed. Calls of active or inactive are those of the source. The call rests on the fitted dose curve.
Observation type: Potency

1. C=CC(=O)Nc1cccc(Oc2nc(Nc3ccc(N4CCN(C)CC4)cc3OC)ncc2Cl)c1: inactive
2. C[C@@H]1O[C@@H](O[C@@H]2C=C3CC[C@@H]4[C@@H](CC[C@]5(C)[C@H](c6ccc(=O)oc6)CC[C@@]45O)[C@@]3(C)CC2)[C@H](O)[C@H](O)[C@H]1O: 76.9 nM (active)
3. COc1ccc(CC2SC(=O)NC2=O)cc1C(=O)NCc1ccc(C(F)(F)F)cc1 (stereo not given): inactive
4. CC(=O)NCCC(=O)N[C@@H](CCC(N)=O)C(=O)N[C@@H](CO)C(=O)N[C@@H](CCC(N)=O)C(=O)N[C@@H](CCC(N)=O)C(=O)N[C@H](C(=O)N[C@@H](Cc1ccccc1)C(=O)N[C@]1(C)CCCCCCC=CCCC[C@@](C)(C(=O)N[C@@H](CCC(N)=O)C(=O)N[C@@H](CC(N)=O)C(N)=O)NC(=O)[C@H](CC(C)C)NC(=O)[C@H](CC(C)C)NC(=O)[C@@H](CCCNC(=N)N)NC(=O)[C@H](Cc2c[nH]c3ccccc23)NC(=O)[C@H](CC(C)C)NC(=O)[C@H](CC(N)=O)NC1=O)[C@H](C)O: inactive
5. O=C1NS(=O)(=O)c2ccccc21: inactive
